Parameter clearance: see the listing below.
assay: Plasma clearance in ICR mouse; assay type: ADME, organism-based
measured_attribute: clearance

{"columns": ["molecule", "obs_value"],
 "data": [
  ["O=C(NO)c1ccc(NC2CCN(c3ccc(Cl)cc3)C2=O)cc1 (stereo unspecified)", "156 mL/min/kg"],
  ["O=C(NO)c1ccc(NC2CCN(c3ccccc3)C2=O)cc1 (stereo unspecified)", "108 mL/min/kg"],
  ["C[C@]1(Nc2ccc(C(=O)NO)cc2)CCN(c2ccc(Cl)cc2)C1=O", "87 mL/min/kg"],
  ["O=C(CCCCCCC(=O)Nc1ccccc1)NO", "112 mL/min/kg"],
  ["O=C(NO)c1ccc2c(c1)CC(Nc1nccc(-c3cccnc3)n1)CN2 (stereo unspecified)", "74 mL/min/kg"],
  ["O=C(NO)c1ccc2c(c1)C[C@H](Nc1nccc(-c3cccnc3)n1)CC2", "99 mL/min/kg"]
]}

* * *

Quick record: IC50, Histone deacetylase 8 (Homo sapiens, UniProt Q9BY41).

{"columns": ["molecule", "IC50 / nM"],
 "data": [
  ["CS(=O)(=O)c1ccc(N2CCC(Nc3ccc(C(=O)NO)cc3)C2=O)cc1 (stereo not given)", 120],
  ["O=C(NO)c1ccc(NC2CC(=O)N(c3ccccc3)C2)cc1 (stereo not given)", 6250],
  ["O=C(NO)c1ccc(NC2CCN(c3ccc(Cl)cc3)C2=O)c(Cl)c1 (stereo not given)", 22400],
  ["CC1(Nc2ccc(C(=O)NO)cc2)CCN(c2ccc3ncccc3c2)C1=O (stereo not given)", 76],
  ["O=C(NO)c1ccc(NC2CCN(Cc3ccccc3)C2=O)cc1 (stereo not given)", 760],
  ["CN(c1ccc(C(=O)NO)cc1)C1CCN(c2ccccc2)C1=O (stereo not given)", 8200],
  ["CC1(Nc2ccc(C(=O)NO)cc2)CCN(c2ccc(Cl)cc2)C1=O (stereo not given)", 410],
  ["O=C(NO)c1ccc(NC2CCN(CCc3ccccc3)C2=O)cc1 (stereo not given)", 260],
  ["O=C(NO)c1ccc(NC2CCN(c3ccc(C(F)(F)F)cc3)C2=O)cc1 (stereo not given)", 110],
  ["O=C(NO)c1ccc(OC2CCN(c3ccccc3)C2=O)cc1 (stereo not given)", 4920]
]}

* * *

Parameter CLint scaled at 1 µM: see the listing below.
assay: Intrinsic clearance in human liver microsomes at 1 uM preincubated for 10 mins followed by NADPH addition measured over 30 mins by LC-MS/MS analysis; format: ADME; settings: read-out: CLH

{"columns": ["compound", "units_label", "CLint scaled at 1 µM"],
 "data": [
  ["O=C(CCCCCCC(=O)Nc1ccccc1)NO", "L/h/kg", 0.006],
  ["O=C(NO)c1ccc(NC2CCN(c3ccccc3)C2=O)cc1 (centres undefined)", "L/h/kg", 0.276],
  ["C[C@]1(Nc2ccc(C(=O)NO)cc2)CCN(c2ccc(Cl)cc2)C1=O", "L/h/kg", 0.18],
  ["O=C(NO)c1ccc(NC2CCN(c3ccc(Cl)cc3)C2=O)cc1 (centres undefined)", "L/h/kg", 0.48]
]}

* * *

pEC50: −log10 of the molar value.
Quick record: pEC50, Protein deacetylase HDAC6 (Homo sapiens, UniProt Q9UBN7).

{"columns": ["molecule", "target_entity", "qualifier_sign", "pEC50"],
 "data": [
  ["CN(c1ccc(C(=O)NO)cc1)C1CCN(c2ccccc2)C1=O (stereo unspecified)", "Protein deacetylase HDAC6 (Homo sapiens, UniProt Q9UBN7)", "<", 4.52],
  ["CN(C)CCOc1cccc(N2CCC(Nc3ccc(C(=O)NO)cc3)C2=O)c1 (stereo unspecified)", "Protein deacetylase HDAC6 (Homo sapiens, UniProt Q9UBN7)", "=", 5.70],
  ["O=C(NO)c1ccc(NC2CCN(c3ccc(Cl)cc3)C2=O)cc1F (stereo unspecified)", "Protein deacetylase HDAC6 (Homo sapiens, UniProt Q9UBN7)", "=", 4.87],
  ["N#Cc1ccc(N2CCC(Nc3ccc(C(=O)NO)cc3)C2=O)cc1 (stereo unspecified)", "Protein deacetylase HDAC6 (Homo sapiens, UniProt Q9UBN7)", "=", 5.51],
  ["O=C(NO)c1ccc(OC2CCN(c3ccccc3)C2=O)cc1 (stereo unspecified)", "Protein deacetylase HDAC6 (Homo sapiens, UniProt Q9UBN7)", "<", 4.52],
  ["CC1(Nc2ccc(C(=O)NO)cc2)CCN(c2ccccc2)C1=O (stereo unspecified)", "Protein deacetylase HDAC6 (Homo sapiens, UniProt Q9UBN7)", "=", 5.59],
  ["O=C(NO)c1ccc(NC2CCN(CCc3ccccc3)C2=O)cc1 (stereo unspecified)", "Protein deacetylase HDAC6 (Homo sapiens, UniProt Q9UBN7)", "=", 4.78],
  ["C[C@@]1(Nc2ccc(C(=O)NO)cc2)CCN(c2ccc(Cl)cc2)C1=O", "Protein deacetylase HDAC6 (Homo sapiens, UniProt Q9UBN7)", "=", 5.72],
  ["O=C(NO)c1ccc(NC2CC(=O)N(c3ccccc3)C2)cc1 (stereo unspecified)", "Protein deacetylase HDAC6 (Homo sapiens, UniProt Q9UBN7)", "=", 4.74],
  ["O=C(NO)c1ccc(NC2CCN(c3ccc4ccccc4c3)C2=O)cc1 (stereo unspecified)", "Protein deacetylase HDAC6 (Homo sapiens, UniProt Q9UBN7)", "=", 5.96],
  ["O=C(NO)c1ccc(NC2CCN(c3ccc(C(F)(F)F)cc3)C2=O)cc1 (stereo unspecified)", "Protein deacetylase HDAC6 (Homo sapiens, UniProt Q9UBN7)", "=", 4.79]
]}
